# CC50 values compiled below
Assay: Cytotoxicity against human HFF cells
Assay type: cell-based
Settings: HFF cells
Measured metric: CC50 (µM)

[[record]]
compound = "Brc1ccc2[nH]c3c(c2c1)CCCC3NCCc1ccccc1 (racemic)"
measured_metric = "CC50"
measurement_unit = "µM"
result_operator = "="
experimental_result = 11.4

[[record]]
compound = "Cc1ccc2[nH]c3c(c2c1)CCC[C@@H]3N[C@H](C)c1ccccc1"
measured_metric = "CC50"
measurement_unit = "µM"
result_operator = "="
experimental_result = 41

[[record]]
compound = "C[C@@H](N[C@@H]1CCCc2c1[nH]c1ccc(Br)cc21)c1ccccc1"
measured_metric = "CC50"
measurement_unit = "µM"
result_operator = "="
experimental_result = 9

[[record]]
compound = "C[C@@H](N[C@H]1CCCc2c1[nH]c1ccc(Br)cc21)c1ccccc1"
measured_metric = "CC50"
measurement_unit = "µM"
result_operator = ">"
experimental_result = 30

[[record]]
compound = "Cc1ccc2[nH]c3c(c2c1)CCCC3NCc1ccccc1 (racemic)"
measured_metric = "CC50"
measurement_unit = "µM"
result_operator = "="
experimental_result = 21.3

[[record]]
compound = "Cc1ccc2[nH]c3c(c2c1)CCC[C@@H]3N[C@@H](C)c1ccccc1"
measured_metric = "CC50"
measurement_unit = "µM"
result_operator = "="
experimental_result = 36

[[record]]
compound = "FC(F)(F)c1ccc2[nH]c3c(c2c1)CCCC3NCc1ccccc1 (racemic)"
measured_metric = "CC50"
measurement_unit = "µM"
result_operator = ">"
experimental_result = 100

[[record]]
compound = "Cc1ccc2[nH]c3c(c2c1)CCCC3NC1Cc2ccccc2C1 (racemic)"
measured_metric = "CC50"
measurement_unit = "µM"
result_operator = "="
experimental_result = 40

[[record]]
compound = "COc1ccc2[nH]c3c(c2c1)CCCC3NCc1ccccc1 (racemic)"
measured_metric = "CC50"
measurement_unit = "µM"
result_operator = "="
experimental_result = 57.9

[[record]]
compound = "C[C@H](N[C@H]1CCCc2c1[nH]c1ccc(Br)cc21)c1ccccc1 (racemic)"
measured_metric = "CC50"
measurement_unit = "µM"
result_operator = "="
experimental_result = 22.9


====

Test system: Human papillomavirus type 16
Assay: Antiviral activity against HPV-16 infected in human W12-20850 cells after 4 days by non-radioactive hybrid capture technique
Format: functional, organism-based, Human papillomavirus 16
Conditions: Human papillomavirus 16, W12-20850, 96 h
pIC50: −log10 of the molar value.
Measured metric: pIC50

[[record]]
compound = "FC(F)(F)c1ccc2[nH]c3c(c2c1)CCCC3NCc1ccccc1 (racemic)"
measured_metric = "pIC50"
result_operator = "="
experimental_result = 6.00

[[record]]
compound = "Clc1ccc2[nH]c3c(c2c1)CCCC3NCc1ccccc1 (racemic)"
measured_metric = "pIC50"
result_operator = "="
experimental_result = 6.48

[[record]]
compound = "Brc1ccc2c3c([nH]c2c1)C(NCc1ccccc1)CCC3 (racemic)"
measured_metric = "pIC50"
result_operator = "="
experimental_result = 4.95

[[record]]
compound = "Cc1ccc2[nH]c3c(c2c1)CCC[C@H]3N[C@@H](C)c1ccccc1"
measured_metric = "pIC50"
result_operator = "="
experimental_result = 6.70

[[record]]
compound = "CC(C)(NC1CCCc2c1[nH]c1ccc(Br)cc21)c1ccccc1 (racemic)"
measured_metric = "pIC50"
result_operator = "="
experimental_result = 6.22

[[record]]
compound = "C[C@H](N[C@@H]1CCCc2c1[nH]c1ccc(Br)cc21)c1ccccc1"
measured_metric = "pIC50"
result_operator = "="
experimental_result = 7.70

[[record]]
compound = "C[C@@H](N[C@@H]1CCCc2c1[nH]c1ccc(Br)cc21)c1ccccc1"
measured_metric = "pIC50"
result_operator = "="
experimental_result = 7.52

[[record]]
compound = "Cc1ccc2[nH]c3c(c2c1)CCCC3NCCO (racemic)"
measured_metric = "pIC50"
result_operator = "<"
experimental_result = 4.52

[[record]]
compound = "Fc1ccc2[nH]c3c(c2c1)CCCC3NCc1ccccc1 (racemic)"
measured_metric = "pIC50"
result_operator = "="
experimental_result = 5.80

[[record]]
compound = "OCCNC1CCCc2c1[nH]c1ccc(Br)cc21 (racemic)"
measured_metric = "pIC50"
result_operator = "="
experimental_result = 5.17

[[record]]
compound = "Brc1cccc2c3c([nH]c12)C(NCc1ccccc1)CCC3 (racemic)"
measured_metric = "pIC50"
result_operator = "="
experimental_result = 4.94

[[record]]
compound = "Cc1ccc2[nH]c3c(c2c1)CCC[C@@H]3N[C@H](C)c1ccccc1"
measured_metric = "pIC50"
result_operator = "="
experimental_result = 5.15

[[record]]
compound = "Cc1ccc2[nH]c3c(c2c1)CCC[C@H]3N[C@H](C)c1ccccc1"
measured_metric = "pIC50"
result_operator = "="
experimental_result = 6.52

[[record]]
compound = "Brc1ccc2[nH]c3c(c2c1)CCCC3NC1Cc2ccccc2C1 (racemic)"
measured_metric = "pIC50"
result_operator = "="
experimental_result = 6.92

[[record]]
compound = "Cc1ccc2[nH]c3c(c2c1)CCCC3NC1Cc2ccccc2C1 (racemic)"
measured_metric = "pIC50"
result_operator = "="
experimental_result = 6.33

[[record]]
compound = "O=[N+]([O-])c1ccc2[nH]c3c(c2c1)CCCC3NCc1ccccc1 (racemic)"
measured_metric = "pIC50"
result_operator = "="
experimental_result = 6.64

[[record]]
compound = "CCNC1CCCc2c1[nH]c1ccc(C)cc21 (racemic)"
measured_metric = "pIC50"
result_operator = "<"
experimental_result = 4.70

[[record]]
compound = "Cc1ccc2[nH]c3c(c2c1)CCCC3NCc1ccccc1 (racemic)"
measured_metric = "pIC50"
result_operator = "="
experimental_result = 5.72

[[record]]
compound = "Cc1ccc2[nH]c3c(c2c1)CCC[C@@H]3N[C@@H](C)c1ccccc1"
measured_metric = "pIC50"
result_operator = "="
experimental_result = 5.17

[[record]]
compound = "Brc1ccc2[nH]c3c(c2c1)CCCC3NCCc1ccccc1 (racemic)"
measured_metric = "pIC50"
result_operator = "="
experimental_result = 6.39

[[record]]
compound = "CCN(CC)CCNC1CCCc2c1[nH]c1ccc(C)cc21 (racemic)"
measured_metric = "pIC50"
result_operator = "<"
experimental_result = 4.52

[[record]]
compound = "COC(=O)c1ccc2[nH]c3c(c2c1)CCCC3NCc1ccccc1 (racemic)"
measured_metric = "pIC50"
result_operator = "="
experimental_result = 4.71

[[record]]
compound = "Cc1ccc2[nH]c3c(c2c1)CCCC3NCCc1ccccc1 (racemic)"
measured_metric = "pIC50"
result_operator = "="
experimental_result = 5.57

